# target_desc: binding of His-XIAP(BIR2)-avi fusion protein to GST-RIPK2 fusion protein (RIPK2/XIAP) (Homo sapiens)
# Construct: made in house; host or cells: baculovirus infected Sf9 cells
# Sequence (O43353 1-310 limits assumed): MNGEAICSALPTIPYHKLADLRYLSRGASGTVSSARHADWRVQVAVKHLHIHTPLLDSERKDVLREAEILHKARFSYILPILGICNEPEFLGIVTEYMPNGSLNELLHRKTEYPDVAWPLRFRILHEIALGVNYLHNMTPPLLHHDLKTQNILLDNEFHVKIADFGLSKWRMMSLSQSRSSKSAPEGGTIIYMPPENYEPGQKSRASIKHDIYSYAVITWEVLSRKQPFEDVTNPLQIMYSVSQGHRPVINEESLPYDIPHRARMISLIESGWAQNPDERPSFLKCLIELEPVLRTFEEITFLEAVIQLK
# procedure_details: RIPK2-XIAP binding competition PPI assay (TR-FRET)
# setup_conditions: RIPK2/XIAP binding competition PPI assay; read-out: PPI IC50 bin
reported_endpoint: IC50

COc1cc2ncc(-c3cc(F)c(N)nc3F)n2cc1S(=O)(=O)C(C)(C)CCCO [Example 63]
2.5 to 20 nM
COc1cc2ncc(-c3cc(F)c(OC)c(NS(=O)(=O)c4cnn(C)c4)c3)n2cc1S(=O)(=O)C(C)(C)C [Example 135]
< 1 nM

Incoming: Would you mind telling me what IC50 value was observed for CCS(=O)(=O)Nc1cc(-c2cnc3cc(OC[C@@H](C)O)c(S(=O)(=O)C(C)(C)C)cn23)cc(F)c1OC [Example 252] ?
Outgoing: < 1 nM

Incoming: Would you mind telling me what IC50 value was observed for CC(C)(C)S(=O)(=O)c1cn2c(-c3cnc4[nH]ncc4c3)cnc2cc1OCCO [Example 222] ?
Outgoing: > 20 nM

Incoming: Would you mind telling me what IC50 value was observed for COc1cc2ncc(-c3cc(F)c(OC)c(NS(=O)(=O)CC4COC4)c3)n2cc1S(=O)(=O)C(C)(C)C [Example 160] ?
Outgoing: < 1 nM

Incoming: Would you mind telling me what IC50 value was observed for C[C@@H](O)COc1cc2ncc(-c3cc4cc[nH]c4nc3F)n2cc1S(=O)(=O)C(C)(C)C [Example 251] ?
Outgoing: < 1 nM

Incoming: Would you mind telling me what IC50 value was observed for C[C@H](O)COc1cc2ncc(-c3cc(Cl)c(N)nc3F)n2cc1S(=O)(=O)C(C)(C)C [Example 169] ?
Outgoing: 1 to 2.5 nM

Incoming: Would you mind telling me what IC50 value was observed for COc1cc2ncc(-c3cnn(-c4ccccc4)c3F)n2cc1S(=O)(=O)C(C)(C)C [Example 88] ?
Outgoing: > 20 nM

Incoming: Would you mind telling me what IC50 value was observed for COc1cc2ncc(-c3cn(C)c4ncccc34)n2cc1S(=O)(=O)C(C)(C)C [Example 99] ?
Outgoing: > 20 nM

Incoming: Would you mind telling me what IC50 value was observed for C[C@H](O)COc1cn2ncc(-c3cc(Cl)c(N)nc3F)c2cc1S(=O)(=O)C(C)(C)C [Example 46] ?
Outgoing: 1 to 2.5 nM

Incoming: Would you mind telling me what IC50 value was observed for COc1cc2ncc(-c3cc(NS(=O)(=O)C4(CO)CC4)c(OC)c(OC)c3)n2cc1S(=O)(=O)C(C)(C)C [Example 178] ?
Outgoing: < 1 nM

Incoming: Would you mind telling me what IC50 value was observed for COc1cc2ncc(-c3cc(NS(=O)(=O)c4cnn(C)c4)c(OC)c(OC)c3)n2cc1N1CC2(COC2)CC1=O [Example 271] ?
Outgoing: 2.5 to 20 nM

Incoming: Would you mind telling me what IC50 value was observed for CC(C)(C)S(=O)(=O)c1cn2c(-c3cc(F)c(N)nc3F)cnc2cc1C(=O)NCCO [Example 44] ?
Outgoing: > 20 nM

Incoming: Would you mind telling me what IC50 value was observed for C[C@@H](O)COc1cc2ncc(-c3cc(Cl)c(N)nc3F)n2cc1S(=O)(=O)C(C)(C)C [Example 212] ?
Outgoing: 1 to 2.5 nM

Incoming: Would you mind telling me what IC50 value was observed for COc1cc2ncc(-c3cnc4c(c3)CC(=O)N4)n2cc1S(=O)(=O)C(C)(C)C [Example 83] ?
Outgoing: > 20 nM

Incoming: Would you mind telling me what IC50 value was observed for CC(C)(C)S(=O)(=O)c1cn2c(-c3cnc4[nH]ccc4n3)cnc2cc1OCCO [Example 277] ?
Outgoing: > 20 nM

Incoming: Would you mind telling me what IC50 value was observed for CC(F)(CO)COc1cc2ncc(-c3cc(F)c(N)nc3F)n2cc1S(=O)(=O)C(C)(C)C (single isomer, unassigned) [Example 261] ?
Outgoing: 1 to 2.5 nM

Incoming: Would you mind telling me what IC50 value was observed for COc1cc2ncc(-c3ccc4c(c3)nc(N)n4C)n2cc1S(=O)(=O)C(C)(C)C [Example 115] ?
Outgoing: > 20 nM

Incoming: Would you mind telling me what IC50 value was observed for COc1cc2ncc(-c3cc(F)c(OC)c(NS(=O)(=O)c4csc(C)n4)c3)n2cc1S(=O)(=O)C(C)(C)C [Example 291] ?
Outgoing: < 1 nM

Incoming: Would you mind telling me what IC50 value was observed for CC(C)(C)S(=O)(=O)c1cn2c(-c3cc(F)c(N)nc3F)cnc2cc1OCCn1cccn1 [Example 24] ?
Outgoing: 2.5 to 20 nM

Incoming: Would you mind telling me what IC50 value was observed for C[C@H](O)COc1cc2ncc(-c3cc4cc[nH]c4nc3F)n2cc1S(=O)(=O)C(C)(C)C [Example 268] ?
Outgoing: < 1 nM

Recorded values, source patent US20260137706A1.
